Reference source: patent US11485725B2

IC50 listing for selected compounds.
Test system: HCT116 (colorectal cancer) cells
assay_explanation: Resazurin-based cell viability assay using colorectal cancer cells
settings: Homo sapiens, HCT-116, 72 hr incubation
Give a bare numeral; the unit µM is implied.

CC1(/C=C/C(=O)N2CCC=CC2=O)CCCCC1 [Compound 22]	3.85
CC1(C)C=CC(=O)N(C(=O)/C=C/c2ncccn2)C1 [Compound 33]	4.07
O=C1C=CCCN1C(=O)/C=C/c1cccnn1 [Compound 27]	1.9

Exam item: Sample O=C1C=CCCN1C(=O)/C=C/C1CCN(c2ncccn2)CC1 [Compound 67] — what was its IC50?
Marked response: 3.4

Exam item: Sample Cn1cc(/C=C/C(=O)N2CCC=CC2=O)cn1 [Compound 56] — what was its IC50?
Marked response: 3.6

Exam item: Sample O=C(Nc1ccc(F)cc1)N1CCC(/C=C/C(=O)N2CCC=CC2=O)CC1 [Compound 58] — what was its IC50?
Marked response: 1.1
